- protocolNotes: in vitro
- statedConditions: human, HeLa cells expressing CD4-LTR-beta-gal
- Description: Selectivity index, ratio of CC50 for human HeLa cells expressing CD4-LTR-beta-gal to EC50 for HIV1 3B
quantityName: selectivity ratio

1. CCOC(=O)/C(O)=C/C(=O)c1cn(Cc2ccc(F)cc2)c2cc(N3CCOCC3)ccc2c1=O: > 3
2. CCOC(=O)/C(O)=C/C(=O)c1cn(Cc2ccc(F)cc2)c2cc(N3CCN(CCCCl)CC3)ccc2c1=O: > 3.7
3. O=C(O)/C(O)=C/C(=O)c1cn(Cc2ccc(F)cc2)c2cc(N3CCOCC3)ccc2c1=O: > 1.9
4. CCOC(=O)/C(O)=C/C(=O)c1cn(Cc2ccc(F)cc2)c2cc(N3CCNCC3)ccc2c1=O: > 2.4

====

Measured pIC50 of individual entries
- systemUnderTest: Human immunodeficiency virus type 1 integrase (Human immunodeficiency virus 1, UniProt Q7ZJM1)
- Sequence (Q7ZJM1 whole entry): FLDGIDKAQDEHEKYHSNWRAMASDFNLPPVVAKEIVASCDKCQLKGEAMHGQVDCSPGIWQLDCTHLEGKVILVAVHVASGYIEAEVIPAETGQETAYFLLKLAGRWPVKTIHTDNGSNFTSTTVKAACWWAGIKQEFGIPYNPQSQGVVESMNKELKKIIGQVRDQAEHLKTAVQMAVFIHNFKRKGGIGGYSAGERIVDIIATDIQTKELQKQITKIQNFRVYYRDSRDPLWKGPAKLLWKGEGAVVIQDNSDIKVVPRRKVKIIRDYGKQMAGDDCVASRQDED
- protocolNotes: Inhibition of HIV1 integrase strand transfer activity by gel-based assay
pIC50: −log10 of the molar value.
quantityName: pIC50

1) CCOC(=O)/C(O)=C/C(=O)c1cn(Cc2ccc(F)cc2)c2cc(N3CCOCC3)ccc2c1=O: 5.68
2) O=C(O)/C(O)=C/C(=O)c1cn(Cc2ccc(F)cc2)c2cc(N3CCSCC3)ccc2c1=O: 6.44
3) CCOC(=O)/C(O)=C/C(=O)c1cn(Cc2ccc(F)cc2)c2cc(N(C)C)ccc2c1=O: 5.54
4) CN1CCN(c2ccc3c(=O)c(C(=O)/C=C(\O)C(=O)O)cn(Cc4ccc(F)cc4)c3c2)CC1: 7.00
5) O=C(O)/C(O)=C/C(=O)c1cn(Cc2ccc(F)cc2)c2cc(N3CCN(CCCCl)CC3)ccc2c1=O: 7.30
6) CCOC(=O)/C(O)=C/C(=O)c1cn(Cc2ccc(F)cc2)c2cc(N3CCN(CCCCl)CC3)ccc2c1=O: 5.89
7) O=C(O)/C(O)=C/C(=O)c1cn(Cc2ccc(F)cc2)c2cc(N3CCOCC3)ccc2c1=O: 7.10
8) CCOC(=O)/C(O)=C/C(=O)c1cn(Cc2ccc(F)cc2)c2cc(N3CCN(C(C)=O)CC3)ccc2c1=O: 6.77
9) CCN1CCN(c2ccc3c(=O)c(C(=O)/C=C(\O)C(=O)O)cn(Cc4ccc(F)cc4)c3c2)CC1: 6.68
10) CCOC(=O)/C(O)=C/C(=O)c1cn(Cc2ccc(F)cc2)c2cc(N3CCNCC3)ccc2c1=O: 4.62
